molecular target: ATP-dependent translocase ABCB1 (Homo sapiens, UniProt P08183); experiment: Inhibition of MDR1-mediated efflux-pump activity in mouse L5178Y cells expressing human MDR1 assessed as fluorescence activity ratio at 20 uM preincubated for 10 mins followed by rhodamine-123 addition measured after 20 mins by flow cytometry; assay type: cell-based
Sequence (P08183 whole entry): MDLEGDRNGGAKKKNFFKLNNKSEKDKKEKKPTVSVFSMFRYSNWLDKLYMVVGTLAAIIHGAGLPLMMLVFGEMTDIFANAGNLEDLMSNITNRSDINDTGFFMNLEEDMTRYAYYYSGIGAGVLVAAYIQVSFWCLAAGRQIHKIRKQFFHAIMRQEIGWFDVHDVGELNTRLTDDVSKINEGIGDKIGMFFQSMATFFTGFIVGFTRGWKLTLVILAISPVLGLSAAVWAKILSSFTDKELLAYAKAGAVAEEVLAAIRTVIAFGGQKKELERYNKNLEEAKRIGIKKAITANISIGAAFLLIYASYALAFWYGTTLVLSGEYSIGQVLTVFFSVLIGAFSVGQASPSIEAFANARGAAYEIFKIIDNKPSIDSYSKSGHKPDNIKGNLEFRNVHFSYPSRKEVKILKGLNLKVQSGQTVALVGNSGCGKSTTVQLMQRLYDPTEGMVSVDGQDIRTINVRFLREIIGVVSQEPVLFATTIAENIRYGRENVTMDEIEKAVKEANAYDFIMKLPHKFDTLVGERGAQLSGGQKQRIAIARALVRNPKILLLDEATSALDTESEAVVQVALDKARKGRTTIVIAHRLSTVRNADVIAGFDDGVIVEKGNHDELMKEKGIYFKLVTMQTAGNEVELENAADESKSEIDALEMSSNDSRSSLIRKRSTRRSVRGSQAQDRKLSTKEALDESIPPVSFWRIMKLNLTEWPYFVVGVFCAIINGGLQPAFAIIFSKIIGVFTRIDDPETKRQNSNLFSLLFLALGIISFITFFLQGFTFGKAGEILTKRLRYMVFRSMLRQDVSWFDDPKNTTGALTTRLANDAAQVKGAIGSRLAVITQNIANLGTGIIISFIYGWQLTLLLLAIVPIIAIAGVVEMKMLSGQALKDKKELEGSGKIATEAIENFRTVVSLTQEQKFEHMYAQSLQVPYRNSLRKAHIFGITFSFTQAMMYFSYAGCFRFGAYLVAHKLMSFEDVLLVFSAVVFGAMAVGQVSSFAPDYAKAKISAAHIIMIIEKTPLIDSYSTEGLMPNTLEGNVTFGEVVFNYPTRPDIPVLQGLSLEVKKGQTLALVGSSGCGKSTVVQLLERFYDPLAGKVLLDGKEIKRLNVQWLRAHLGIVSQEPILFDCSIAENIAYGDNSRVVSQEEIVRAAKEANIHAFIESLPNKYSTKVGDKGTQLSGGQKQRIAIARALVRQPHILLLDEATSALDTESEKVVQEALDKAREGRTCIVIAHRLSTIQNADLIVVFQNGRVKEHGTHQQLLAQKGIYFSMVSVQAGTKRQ
Reported Ratio values for the following compounds.
Field format: numeric only.

In the examples that follow, each entry is paired with its recorded Ratio.
C[C@H](C/C=C/C(C)(C)O)[C@H]1CC[C@@]2(C)[C@@H]3[C@@H](O)C=C4[C@@H](CC[C@H](O)C4(C)C)[C@]3(C)C[C@@H](O)[C@]12C [CUCURBALSAMINOL A]    2.9
CC(C)=C[C@H](O)C[C@@H](C)[C@H]1CC[C@@]2(C)[C@@H]3[C@@H](O)C=C4[C@@H](CC[C@H](O)[C@]4(C)CO)[C@]3(C)CC[C@]12C [BALSAMINOL A]    47.6

Recorded Ratio (compound C=C(C)[C@@H](O)[C@H](O)C[C@@H](C)[C@H]1CC[C@@]2(C)[C@@H]3[C@@H](O)C=C4[C@@H](CC[C@H](O)[C@]4(C)CO)[C@]3(C)CC[C@]12C [BALSAMINAPENTAOL A] ): 2.9
